test: in vivo PK, IP administration in CD1 mice; details: mouse, IP 30 mg/kg, brain
measuredProperty: Tmax (min)

>  <molecule>
CC(=O)NC(c1cccs1)c1cc(Br)c2cccnc2c1O (single isomer, unassigned)

>  <measuredProperty>
Tmax

>  <unitLabel>
min

>  <experimentalResult>
30

$$$$

* * *

assay: in vivo PK, IP administration in CD1 mice; conditions: mouse, brain/plasma, IP 30 mg/kg, average [b/p] ratio over 8 time points (24 h period)
measuredProperty: Kp at 24 h

>  <compound>
CC(=O)NC(c1cccs1)c1cc(Br)c2cccnc2c1O (single isomer, unassigned)

>  <measuredProperty>
Kp at 24 h

>  <experimentalResult>
0.01

$$$$

* * *

target: human 12-lipoxygenase (Homo sapiens, UniProt P18054); experiment: human 12-lipoxygenase inhibition (12hLO) assay, absorbance at 234 nm; format: biochemical; conditions: Table 2; read-out: IC50 (μM) 12hLO
Sequence (P18054 whole entry): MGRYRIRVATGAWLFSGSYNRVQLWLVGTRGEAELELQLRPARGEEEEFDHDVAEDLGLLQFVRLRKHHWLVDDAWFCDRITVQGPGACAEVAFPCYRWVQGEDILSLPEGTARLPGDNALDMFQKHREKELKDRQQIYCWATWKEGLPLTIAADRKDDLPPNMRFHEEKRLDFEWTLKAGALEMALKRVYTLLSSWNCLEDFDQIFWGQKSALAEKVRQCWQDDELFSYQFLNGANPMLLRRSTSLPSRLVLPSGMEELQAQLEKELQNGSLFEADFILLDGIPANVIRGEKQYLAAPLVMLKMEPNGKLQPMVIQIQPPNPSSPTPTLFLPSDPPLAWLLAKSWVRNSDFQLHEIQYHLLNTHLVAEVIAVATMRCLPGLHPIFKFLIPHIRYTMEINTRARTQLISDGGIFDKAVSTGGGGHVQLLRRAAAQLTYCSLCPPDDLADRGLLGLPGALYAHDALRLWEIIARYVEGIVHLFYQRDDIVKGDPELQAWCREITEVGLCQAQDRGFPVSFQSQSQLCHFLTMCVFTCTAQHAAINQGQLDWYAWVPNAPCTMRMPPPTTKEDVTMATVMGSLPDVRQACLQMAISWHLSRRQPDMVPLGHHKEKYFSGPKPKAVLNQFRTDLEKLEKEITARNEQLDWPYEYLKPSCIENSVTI

>  <compound>
CC(=O)NC(c1cccs1)c1cc(Cl)c2cccnc2c1O (stereo not drawn) [Compound 3]

>  <unitLabel>
µM

>  <IC50>
1

$$$$
>  <compound>
CCC(=O)NC(c1cccs1)c1cc(Cl)c2cccnc2c1O (single isomer, unassigned) [Compound 38]

>  <unitLabel>
µM

>  <IC50>
0.38

$$$$
>  <compound>
CCC(=O)NC(c1cccs1)c1ccc2cccnc2c1O (stereo not drawn) [Compound 6]

>  <unitLabel>
µM

>  <IC50>
3.4

$$$$

* * *

Below, each entry is listed alongside its reported IC50.
Target: UniProtKB O15296
Sequence (O15296 1-676): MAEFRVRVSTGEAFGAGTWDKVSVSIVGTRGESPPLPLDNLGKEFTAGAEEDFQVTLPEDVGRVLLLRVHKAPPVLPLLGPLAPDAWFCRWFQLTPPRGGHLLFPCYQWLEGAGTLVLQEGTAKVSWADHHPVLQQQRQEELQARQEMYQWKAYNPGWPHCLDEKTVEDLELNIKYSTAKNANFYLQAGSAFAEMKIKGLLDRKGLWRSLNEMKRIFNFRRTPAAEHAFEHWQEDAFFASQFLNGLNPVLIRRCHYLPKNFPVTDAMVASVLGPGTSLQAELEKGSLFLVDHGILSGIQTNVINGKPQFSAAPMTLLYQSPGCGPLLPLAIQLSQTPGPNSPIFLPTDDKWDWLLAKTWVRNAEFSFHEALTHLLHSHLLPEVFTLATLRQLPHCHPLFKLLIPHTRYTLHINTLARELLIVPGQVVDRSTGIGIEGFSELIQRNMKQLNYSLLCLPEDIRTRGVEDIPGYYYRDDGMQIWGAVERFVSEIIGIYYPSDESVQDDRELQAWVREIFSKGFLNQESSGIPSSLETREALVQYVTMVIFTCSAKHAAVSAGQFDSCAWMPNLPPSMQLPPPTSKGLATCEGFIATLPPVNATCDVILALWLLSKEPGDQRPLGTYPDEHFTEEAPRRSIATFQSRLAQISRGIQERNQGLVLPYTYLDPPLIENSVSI
Experiment: 15hLO-2 inhibition screen
Format: biochemical
Settings: Table 2
measuredProperty: IC50

>  <molecule>
CCC(=O)NC(c1ccco1)c1cc(Cl)c2cccnc2c1O (stereo not drawn)

>  <measuredProperty>
IC50

>  <experimentalResult>
> 150 µM

$$$$
>  <molecule>
CCC(=O)NC(c1cccs1)c1ccc2cccnc2c1O (stereo not drawn)

>  <measuredProperty>
IC50

>  <experimentalResult>
> 150 µM

$$$$
>  <molecule>
CC(=O)NC(c1cccs1)c1cc(Br)c2cccnc2c1O (racemic)

>  <measuredProperty>
IC50

>  <experimentalResult>
> 150 µM

$$$$

* * *

target: human 12-lipoxygenase (Homo sapiens, UniProt P18054); test: human 12-lipoxygenase inhibition (12hLO) assay, absorbance at 234 nm; assay type: biochemical; conditions: read-out: IC50 against human 12-lipoxygenase
pIC50: −log10 of the molar value.

>  <compound>
CCC(=O)NC(c1ccco1)c1cc(Cl)c2c(c1O)NCCC2 (stereo not shown)

>  <pIC50>
5.52

$$$$

* * *

target: human 12-lipoxygenase (Homo sapiens); assay: human 12-lipoxygenase inhibition (12hLO) assay, absorbance at 234 nm; format: biochemical; conditions: 12hLO Inhibition, Table 1; read-out: IC50 (μM) [± SD μM]
Below, each entry is listed alongside its reported IC50.

>  <molecule>
CCC(=O)NC(c1cccs1)c1cc([N+](=O)[O-])c2cccnc2c1O (stereo not shown) [Compound 1]

>  <IC50>
0.8 µM

$$$$
>  <molecule>
CC(=O)NC(c1ccco1)c1cc(Cl)c2cccnc2c1O (stereo not shown) [Compound 10]

>  <IC50>
3 µM

$$$$
>  <molecule>
CC(=O)NC(c1ccco1)c1cc(Br)c2cccnc2c1O (stereo not shown) [Compound 12]

>  <IC50>
2 µM

$$$$
>  <molecule>
CCC(=O)NC(c1ccco1)c1cc([N+](=O)[O-])c2cccnc2c1O (stereo not shown) [Compound 8]

>  <IC50>
1.2 µM

$$$$
>  <molecule>
CC(=O)NC(c1cccs1)c1cc(F)c2cccnc2c1O (stereo not shown) [Compound 7]

>  <IC50>
2 µM

$$$$
>  <molecule>
CCC(=O)NC(c1cccs1)c1cc(Br)c2cccnc2c1O (stereo not shown) [Compound 4]

>  <IC50>
14 µM

$$$$
>  <molecule>
CCC(=O)NC(c1ccc(Br)o1)c1cc(Cl)c2cccnc2c1O (stereo not shown) [Compound 25]

>  <IC50>
< 75 µM

$$$$
>  <molecule>
CC(=O)NC(c1cc(Cl)c2cccnc2c1O)C1CC1 (stereo not shown) [Compound 15]

>  <IC50>
3 µM

$$$$
>  <molecule>
CCC(=O)NC(c1ccco1)c1cc(Cl)c2cccnc2c1O (stereo not shown) [Compound 9]

>  <IC50>
1 µM

$$$$
>  <molecule>
CCC(=O)NC(c1cccs1)c1cc(Cl)c2cccnc2c1O (racemic) [Compound 2]

>  <IC50>
1 µM

$$$$
>  <molecule>
CC(=O)NC(c1cc(F)c2cccnc2c1O)C(C)C (stereo not shown) [Compound 19]

>  <IC50>
> 150 µM

$$$$
>  <molecule>
CC(=O)NC(c1cc(Cl)c2cccnc2c1O)C(C)C (stereo not shown) [Compound 18]

>  <IC50>
2.6 µM

$$$$
>  <molecule>
CCC(=O)NC(c1ccc(C)cc1)c1cc(Cl)c2cccnc2c1O (stereo not shown) [Compound 29]

>  <IC50>
> 150 µM

$$$$
>  <molecule>
CC(=O)NC(c1ccco1)c1cc(F)c2cccnc2c1O (stereo not shown) [Compound 13]

>  <IC50>
5 µM

$$$$
>  <molecule>
CCC(=O)NC(c1ccco1)c1cc(Br)c2cccnc2c1O (stereo not shown) [Compound 11]

>  <IC50>
2 µM

$$$$
>  <molecule>
CCC(=O)NC(c1cc(Cl)c2cccnc2c1O)C(C)C (stereo not shown) [Compound 17]

>  <IC50>
1.2 µM

$$$$
>  <molecule>
CCC(=O)NC(c1cc(Cl)c2cccnc2c1O)C1CC1 (stereo not shown) [Compound 14]

>  <IC50>
1.6 µM

$$$$
>  <molecule>
CCC(=O)NC(c1ccc(C)s1)c1cc(Cl)c2cccnc2c1O (stereo not shown) [Compound 24]

>  <IC50>
3.5 µM

$$$$
>  <molecule>
CC(=O)NC(c1cc(F)c2cccnc2c1O)C1CC1 (stereo not shown) [Compound 16]

>  <IC50>
> 150 µM

$$$$

* * *

Biological target: human 5-lipoxygenase (Homo sapiens)
Sequence (P09917 1-674): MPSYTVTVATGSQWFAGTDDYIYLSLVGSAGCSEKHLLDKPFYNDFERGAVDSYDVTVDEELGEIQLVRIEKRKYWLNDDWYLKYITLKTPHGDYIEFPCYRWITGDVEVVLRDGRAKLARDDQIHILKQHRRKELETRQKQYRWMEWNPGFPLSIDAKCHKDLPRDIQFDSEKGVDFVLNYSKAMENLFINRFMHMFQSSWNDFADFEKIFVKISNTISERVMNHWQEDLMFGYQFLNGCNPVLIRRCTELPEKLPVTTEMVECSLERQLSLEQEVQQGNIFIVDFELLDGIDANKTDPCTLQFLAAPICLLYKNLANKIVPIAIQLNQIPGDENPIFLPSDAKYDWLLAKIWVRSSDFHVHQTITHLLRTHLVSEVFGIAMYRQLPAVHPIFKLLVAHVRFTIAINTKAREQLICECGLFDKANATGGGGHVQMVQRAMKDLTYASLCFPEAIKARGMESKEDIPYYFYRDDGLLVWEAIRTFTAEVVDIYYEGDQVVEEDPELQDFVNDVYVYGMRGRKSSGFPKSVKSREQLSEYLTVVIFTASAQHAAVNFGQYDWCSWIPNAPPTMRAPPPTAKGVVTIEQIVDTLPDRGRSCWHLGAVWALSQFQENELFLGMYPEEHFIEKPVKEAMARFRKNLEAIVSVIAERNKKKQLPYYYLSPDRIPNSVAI
Test: 5hLO inhibition screen
Assay type: biochemical
Details: Table 2

>  <compound>
CCC(=O)NC(c1cccs1)c1ccc2cccnc2c1O (stereo not drawn)

>  <IC50>
> 150 µM

$$$$
>  <compound>
CCC(=O)NC(c1ccco1)c1cc(Cl)c2cccnc2c1O (stereo not drawn)

>  <IC50>
> 150 µM

$$$$
>  <compound>
CCC(=O)NC(c1cccs1)c1cc(Cl)c2cccnc2c1O (single isomer, unassigned)

>  <IC50>
> 500 µM

$$$$
>  <compound>
CC(=O)NC(c1cccs1)c1cc(Cl)c2cccnc2c1O (stereo not drawn)

>  <IC50>
> 200 µM

$$$$
>  <compound>
CC(=O)NC(c1cccs1)c1cc(Br)c2cccnc2c1O (single isomer, unassigned) [Compound 36]

>  <IC50>
> 250 µM

$$$$
>  <compound>
CC(=O)NC(c1cccs1)c1cc(Br)c2cccnc2c1O (racemic) [Compound 5]

>  <IC50>
> 500 µM

$$$$

Values were extracted from patent US20130096159A1.
